Target: T1, B-cat-Halo (UniProt P35222 1-781)
T1 sequence (looked up): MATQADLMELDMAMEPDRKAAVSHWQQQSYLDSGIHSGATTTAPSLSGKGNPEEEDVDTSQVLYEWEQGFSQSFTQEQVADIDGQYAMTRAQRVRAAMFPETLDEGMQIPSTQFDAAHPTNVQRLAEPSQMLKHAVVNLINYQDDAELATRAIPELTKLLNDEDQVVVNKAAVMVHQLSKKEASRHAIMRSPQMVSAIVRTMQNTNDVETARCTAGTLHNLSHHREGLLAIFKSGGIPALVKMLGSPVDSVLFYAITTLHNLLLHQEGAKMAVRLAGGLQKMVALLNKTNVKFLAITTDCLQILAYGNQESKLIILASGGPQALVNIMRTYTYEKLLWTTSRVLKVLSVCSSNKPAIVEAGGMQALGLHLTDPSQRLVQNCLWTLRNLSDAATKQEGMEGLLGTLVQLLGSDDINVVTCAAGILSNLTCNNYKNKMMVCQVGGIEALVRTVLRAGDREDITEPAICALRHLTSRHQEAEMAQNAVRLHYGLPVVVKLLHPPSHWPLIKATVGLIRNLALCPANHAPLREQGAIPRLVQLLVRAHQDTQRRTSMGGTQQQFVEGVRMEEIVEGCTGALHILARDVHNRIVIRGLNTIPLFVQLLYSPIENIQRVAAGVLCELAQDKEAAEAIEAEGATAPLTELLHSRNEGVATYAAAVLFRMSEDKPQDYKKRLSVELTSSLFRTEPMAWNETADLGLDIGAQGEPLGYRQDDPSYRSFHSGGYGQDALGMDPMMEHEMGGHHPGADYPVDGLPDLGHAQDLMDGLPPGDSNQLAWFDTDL
Assay: cell-based or functional assay
Starred links: 1 amine or outer side, 2 acyl side, 3 side chain; linkers in the order of their positions; H or OH if unused. Positions of bridges follow the written chain, without caps; N, C: chain ends. Non-standard residues stand in square brackets, D forms with d. Primed or numbered codes have the meaning given here. PyrS2″ = (S)-3-amino-1-((pent-4-en-1-yloxy)carbonyl)pyrrolidine-3-carboxylic acid (stapling residue), C=CCCCOC(=O)N1CC[C@@](N[*:1])(C(=O)[*:2])C1; B5(4) = 2,2-bis(4-pentenyl)glycine = 2-amino-2-(pent-4-en-1-yl)hept-6-enoic acid (stitching residue), C=CCCCC(CCCC=C)(N[*:1])C(=O)[*:2]; PyrS2 = (S)-3-amino-1-((pent-4-en-1-yloxy)carbonyl)pyrrolidine-3-carboxylic acid, C=CCCCOC(=O)N1CC[C@@](N[*:1])(C(=O)[*:2])C1; 3Br4FF = (S)-2-amino-3-(3-bromo-4-fluorophenyl)propanoic acid, O=C([C@H](Cc1ccc(F)c(Br)c1)N[*:1])[*:2]; B5(3) = 2,2-bis(4-pentenyl)glycine (stitching residue), C=CCCCC(CCCC=C)(N[*:1])C(=O)[*:2]; Phe(3-COOH) = N[C@@H](Cc1cccc(C(=O)O)c1)C(=O)O; Phe(2-CF3) = N[C@@H](Cc1ccccc1C(F)(F)F)C(=O)O; Bta = N[C@@H](Cc1csc2ccccc12)C(=O)O; αAllylPro = C=CC[C@@]1(C(=O)O)CCCN1; tBuAla = CC(C)(C)C[C@H](N)C(=O)O; 3Thi = N[C@@H](Cc1ccsc1)C(=O)O
measure: NanoBRET Abs IC50 (µM)

- binder: "Ac-[αAllylPro]D[tBuAla][B5(4)]D[Phe(3-COOH)]AAFL[PyrS2][Phe(2-CF3)][3Br4FF]S-NH2 (staple 1-4, 4-11) [I-2289]"
  measurementUnits: "µM"
  numericResult: 9
- binder: "Ac-[αAllylPro]D[tBuAla][B5(3)]D[Phe(3-COOH)]AAFL[PyrS2″][3Thi][Bta]NL-NH2 (staple 1-4, 4-11) [I-2274]"
  measurementUnits: "µM"
  numericResult: 2
